recorded.endpoint: melting point

compound	melting point
CC(=O)c1ccc(Nc2nnc(Cc3ccncc3)c3ccccc23)cc1O	234 to 236 °C
c1cncc(Nc2nnc(Cc3ccncc3)c3ccccc23)c1	137 to 139 °C
CCc1cccc(Nc2nnc(Cc3ccncc3)c3ccccc23)c1 [Example 67E]	143 to 144 °C

Per the records, this compound ( Cc1ccc(Oc2nnc(Cc3ccncc3)c3ccccc23)cc1 [Example 72C] ) has melting point equal to 175 to 176 °C

Per the records, this compound ( c1ccc2c(NC3CCCCC3)nnc(Cc3ccncc3)c2c1 ) has melting point equal to 137 to 139 °C

Per the records, this compound ( FC(F)C(F)(F)Oc1cccc(Nc2nnc(Cc3ccncc3)c3ccccc23)c1 (hydrate or solvate) [Example 67S] ) has melting point equal to 185 to 187 °C

Per the records, this compound ( Oc1cccc(Nc2nnc(Cc3ccncc3)c3ccccc23)c1 ) has melting point equal to 217 to 219 °C

Per the records, this compound ( CC(=O)Nc1ccc2c(Cc3ccncc3)nnc(Nc3ccccc3)c2c1.Cl ) has melting point equal to 162 to 166 °C

Per the records, this compound ( CC(=O)Nc1ccc(Nc2nnc(Cc3ccncc3)c3ccccc23)cc1 ) has melting point equal to > 270 °C

Per the records, this compound ( Oc1cccc(Oc2nnc(Cc3ccncc3)c3ccccc23)c1 ) has melting point equal to 206 to 207 °C
